target_desc: T1, His6-yNpl4^113–580 (Saccharomyces cerevisiae, UniProt P33755 113-580)
T1 construct: codon-optimized synthetic cDNA; also called WT; WT #1; source: E. coli Rosetta (DE3), purified (Ni-NTA, Resource Q); also in lysate, mixed with cells expressing GST-yUfd1 for co-purification; not shown: His6, N-terminal, kept
T1 sequence (looked up): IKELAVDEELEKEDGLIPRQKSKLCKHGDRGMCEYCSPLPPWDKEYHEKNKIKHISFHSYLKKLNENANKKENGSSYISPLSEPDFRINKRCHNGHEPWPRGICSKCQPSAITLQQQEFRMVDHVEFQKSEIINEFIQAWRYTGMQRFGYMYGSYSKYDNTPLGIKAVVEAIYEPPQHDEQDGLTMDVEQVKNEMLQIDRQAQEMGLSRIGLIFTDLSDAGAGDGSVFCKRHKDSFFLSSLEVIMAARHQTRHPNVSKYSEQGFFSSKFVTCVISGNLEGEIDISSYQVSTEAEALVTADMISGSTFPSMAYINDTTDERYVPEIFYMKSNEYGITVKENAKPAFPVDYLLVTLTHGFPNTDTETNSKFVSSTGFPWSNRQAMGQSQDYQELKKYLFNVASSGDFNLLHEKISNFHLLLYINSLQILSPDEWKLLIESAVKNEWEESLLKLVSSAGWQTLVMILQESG
assay: fluorescence polarisation; fluorescence anisotropy; 1 nM FlAsH-labeled His6-SUMO-yUfd1 peptide, His6-yNpl4^113–580 in two-fold dilution series; 25 °C; 50 mM Tris-HCl pH 8.0, 100 mM NaCl, 5 mM β-mercaptoethanol, 0.1 g/L BSA
applied_conditions: both partners purified
No end group written: not given here.
endpoint_name: Kd (µM)

* {His6-SUMO}-EPAKLDLPAGQLFFGFPMGWCCPGCC (peptide, UniProt P53044 288-305, looked up, cysteine pairing not given here; also: FlAsH label bound to CCPGCC motif, Ufd1 of Saccharomyces cerevisiae (yUfd1), residues 288-305 (NBM); also called yUfd1 E296A; source: E. coli Rosetta (DE3) (pCold-SUMO), purified (Ni-NTA, Resource Q), labeled with FlAsH-EDT2; not shown: His6, N-terminal, kept; SUMO, N-terminal, kept) [FlAsH-labeled His6-SUMO-yUfd1^288–305-GWCCPGCC E296A] | 0.437
* {His6-SUMO}-EPAKLDLPEGQLFAGFPMGWCCPGCC (peptide, UniProt P53044 288-305, looked up, cysteine pairing not given here; also: FlAsH label bound to CCPGCC motif, Ufd1 of Saccharomyces cerevisiae (yUfd1), residues 288-305 (NBM); also called yUfd1 F301A; source: E. coli Rosetta (DE3) (pCold-SUMO), purified (Ni-NTA, Resource Q), labeled with FlAsH-EDT2; not shown: His6, N-terminal, kept; SUMO, N-terminal, kept) [FlAsH-labeled His6-SUMO-yUfd1^288–305-GWCCPGCC F301A] | 20.8
* {His6-SUMO}-EPAKLDAPEGQLFFGFPMGWCCPGCC (peptide, UniProt P53044 288-305, looked up, cysteine pairing not given here; also: FlAsH label bound to CCPGCC motif, Ufd1 of Saccharomyces cerevisiae (yUfd1), residues 288-305 (NBM); also called yUfd1 L294A; source: E. coli Rosetta (DE3) (pCold-SUMO), purified (Ni-NTA, Resource Q), labeled with FlAsH-EDT2; not shown: His6, N-terminal, kept; SUMO, N-terminal, kept) [FlAsH-labeled His6-SUMO-yUfd1^288–305-GWCCPGCC L294A] | 0.527
* {His6-SUMO}-EPAKADLPEGQLFFGFPMGWCCPGCC (peptide, UniProt P53044 288-305, looked up, cysteine pairing not given here; also: FlAsH label bound to CCPGCC motif, Ufd1 of Saccharomyces cerevisiae (yUfd1), residues 288-305 (NBM); also called yUfd1 L292A; source: E. coli Rosetta (DE3) (pCold-SUMO), purified (Ni-NTA, Resource Q), labeled with FlAsH-EDT2; not shown: His6, N-terminal, kept; SUMO, N-terminal, kept) [FlAsH-labeled His6-SUMO-yUfd1^288–305-GWCCPGCC L292A] | 5.29
* {His6-SUMO}-EPAKLDLPEGQLFFGAPMGWCCPGCC (peptide, UniProt P53044 288-305, looked up, cysteine pairing not given here; also: FlAsH label bound to CCPGCC motif, Ufd1 of Saccharomyces cerevisiae (yUfd1), residues 288-305 (NBM); also called yUfd1 F303A; source: E. coli Rosetta (DE3) (pCold-SUMO), purified (Ni-NTA, Resource Q), labeled with FlAsH-EDT2; not shown: His6, N-terminal, kept; SUMO, N-terminal, kept) [FlAsH-labeled His6-SUMO-yUfd1^288–305-GWCCPGCC F303A] | 1.77
* {His6-SUMO}-EPAKLDLPELQLFFGFPMGWCCPGCC (peptide, UniProt P53044 288-305, looked up, cysteine pairing not given here; also: FlAsH label bound to CCPGCC motif, Ufd1 of Saccharomyces cerevisiae (yUfd1), residues 288-305 (NBM); also called yUfd1 G297L; source: E. coli Rosetta (DE3) (pCold-SUMO), purified (Ni-NTA, Resource Q), labeled with FlAsH-EDT2; not shown: His6, N-terminal, kept; SUMO, N-terminal, kept) [FlAsH-labeled His6-SUMO-yUfd1^288–305-GWCCPGCC G297L] | 0.619
* {His6-SUMO}-EPAKLDLPEGQAFFGFPMGWCCPGCC (peptide, UniProt P53044 288-305, looked up, cysteine pairing not given here; also: FlAsH label bound to CCPGCC motif, Ufd1 of Saccharomyces cerevisiae (yUfd1), residues 288-305 (NBM); also called yUfd1 L299A; source: E. coli Rosetta (DE3) (pCold-SUMO), purified (Ni-NTA, Resource Q), labeled with FlAsH-EDT2; not shown: His6, N-terminal, kept; SUMO, N-terminal, kept) [FlAsH-labeled His6-SUMO-yUfd1^288–305-GWCCPGCC L299A] | 12.7
* {His6-SUMO}-EPAKLDLPERQLFFGFPMGWCCPGCC (peptide, UniProt P53044 288-305, looked up, cysteine pairing not given here; also: FlAsH label bound to CCPGCC motif, Ufd1 of Saccharomyces cerevisiae (yUfd1), residues 288-305 (NBM); also called yUfd1 G297R; source: E. coli Rosetta (DE3) (pCold-SUMO), purified (Ni-NTA, Resource Q), labeled with FlAsH-EDT2; not shown: His6, N-terminal, kept; SUMO, N-terminal, kept) [FlAsH-labeled His6-SUMO-yUfd1^288–305-GWCCPGCC G297R] | 20.9
* {His6-SUMO}-EPAKLDLPEGQLFFGFPAGWCCPGCC (peptide, UniProt P53044 288-305, looked up, cysteine pairing not given here; also: FlAsH label bound to CCPGCC motif, Ufd1 of Saccharomyces cerevisiae (yUfd1), residues 288-305 (NBM); also called yUfd1 M305A; source: E. coli Rosetta (DE3) (pCold-SUMO), purified (Ni-NTA, Resource Q), labeled with FlAsH-EDT2; not shown: His6, N-terminal, kept; SUMO, N-terminal, kept) [FlAsH-labeled His6-SUMO-yUfd1^288–305-GWCCPGCC M305A] | 0.261
* {His6-SUMO}-EPAKLDLPEYQLFFGFPMGWCCPGCC (peptide, UniProt P53044 288-305, looked up, cysteine pairing not given here; also: FlAsH label bound to CCPGCC motif, Ufd1 of Saccharomyces cerevisiae (yUfd1), residues 288-305 (NBM); also called yUfd1 G297Y; source: E. coli Rosetta (DE3) (pCold-SUMO), purified (Ni-NTA, Resource Q), labeled with FlAsH-EDT2; not shown: His6, N-terminal, kept; SUMO, N-terminal, kept) [FlAsH-labeled His6-SUMO-yUfd1^288–305-GWCCPGCC G297Y] | 2.14

Origin of the recorded values: paper PMC6910952
